Reported AUC(0-t) values are given for each entry in this list.
# assay_notes: in vivo
# stated_conditions: male, Han Wistar, rat, po, 5 mg/kg
Your answer should be a plain number; it is taken to be in µg·h/mL.

Task: For the compound `[2H]c1cc([2H])c(-c2ccc(NC(=O)C3=C(C(=O)O)CCC3)c(F)c2)c([2H])c1OC([2H])([2H])[2H]` , what AUC(0-t) is on record?
Result: 202

Task: For the compound `[2H]C([2H])([2H])Oc1cccc(-c2ccc(NC(=O)C3=C(C(=O)O)CCC3)c(F)c2)c1` , what AUC(0-t) is on record?
Result: 183

Task: For the compound COc1cccc(-c2ccc(NC(=O)C3=C(C(=O)O)CCC3)c(F)c2)c1 [Example C26, vidofludimus, reference compound] , what AUC(0-t) is on record?
Result: 200

###

# assay_notes: in vitro
# stated_conditions: male, human, microsomes
Reported microsomal CLint values are given for each entry in this list.
Dear colleague, please send the value followed by its unit.

Take a look at these entries with their results.
1. [2H]c1cc([2H])c(-c2ccc(NC(=O)C3=C(C(=O)O)CCC3)c(F)c2)c([2H])c1OC([2H])([2H])[2H]; 7.67 µL/min/mg
2. [2H]C([2H])([2H])Oc1cccc(-c2ccc(NC(=O)C3=C(C(=O)O)CCC3)c(F)c2)c1; 7.69 µL/min/mg

The record that follows has no microsomal CLint shown yet.
Task: For the compound COc1cccc(-c2ccc(NC(=O)C3=C(C(=O)O)CCC3)c(F)c2)c1 [Example C26, vidofludimus, reference compound] , what microsomal CLint is on record?
Result: 12.6 µL/min/mg

###

# assay_notes: in vivo
# stated_conditions: male, Han Wistar, rat, po, 5 mg/kg
Reported AUC(0-inf) values are given for each entry in this list.
Your answer should be a plain number; it is taken to be in µg·h/mL.

Take a look at these entries with their results.
1) [2H]C([2H])([2H])Oc1cccc(-c2ccc(NC(=O)C3=C(C(=O)O)CCC3)c(F)c2)c1 [Example 1]; 210
2) COc1cccc(-c2ccc(NC(=O)C3=C(C(=O)O)CCC3)c(F)c2)c1 [Example C26, vidofludimus, reference compound]; 206

The record that follows has no AUC(0-inf) shown yet.
Task: For the molecule [2H]c1cc([2H])c(-c2ccc(NC(=O)C3=C(C(=O)O)CCC3)c(F)c2)c([2H])c1OC([2H])([2H])[2H] [Example 2] , what AUC(0-inf) is on record?
Result: 233

###

# assay_notes: in vivo
# stated_conditions: male, Han Wistar, rat, po, 5 mg/kg
Reported Cmax values are given for each entry in this list.
Your answer should be a plain number; it is taken to be in ng/mL.

Take a look at these entries with their results.
1. [2H]c1cc([2H])c(-c2ccc(NC(=O)C3=C(C(=O)O)CCC3)c(F)c2)c([2H])c1OC([2H])([2H])[2H]; 16000
2. COc1cccc(-c2ccc(NC(=O)C3=C(C(=O)O)CCC3)c(F)c2)c1 [Example C26, vidofludimus, reference compound]; 14900

Task: For the compound `[2H]C([2H])([2H])Oc1cccc(-c2ccc(NC(=O)C3=C(C(=O)O)CCC3)c(F)c2)c1` , what Cmax is on record?
Result: 14600

Reference source for all entries: patent US20240199535A1
